# TARGET_OR_SYSTEM: MycN (Homo sapiens)
# Construct: endogenous in cells; host or cells: SK-N-BE(2)
# Sequence (P04198 1-464): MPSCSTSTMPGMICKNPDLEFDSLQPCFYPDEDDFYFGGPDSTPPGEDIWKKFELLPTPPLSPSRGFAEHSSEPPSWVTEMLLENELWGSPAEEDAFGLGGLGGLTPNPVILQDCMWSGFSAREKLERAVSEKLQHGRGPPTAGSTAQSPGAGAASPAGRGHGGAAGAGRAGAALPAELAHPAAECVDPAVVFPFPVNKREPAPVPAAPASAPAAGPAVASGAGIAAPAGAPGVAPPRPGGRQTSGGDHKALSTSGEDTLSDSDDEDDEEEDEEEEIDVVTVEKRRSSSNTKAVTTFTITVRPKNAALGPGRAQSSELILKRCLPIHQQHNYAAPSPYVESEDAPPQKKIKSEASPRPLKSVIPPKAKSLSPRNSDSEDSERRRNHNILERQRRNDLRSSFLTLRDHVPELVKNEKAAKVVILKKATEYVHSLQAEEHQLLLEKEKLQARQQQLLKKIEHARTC
# ASSAY_COMMENT: Degradation of MycN protein in SK-N-BE(2) cells, JESS/Western blot of lysates
# Type: cell-based
# RECORDED_CONDITIONS: SKNBE2, 24 h, SKNBE2 cells, 24 h, 1 μM; read-out: % Degradation of MycN (SKNBE2) 24 h, 1 μM
Catalogue of molecules with associated Dmax at 1 µM

Previously resolved entries follow.
> print(dat)
                                   molecule   metric.name  recorded.measurement
1  c1cc(Nc2cc(C3CCCC3)[nH]n2)nc(N2CC3(CCCNC3)C2)n1 [Compound 106]  Dmax at 1 µM                 < 20%
2  OC1CN(CC23CC(C2)N(c2nccc(Nc4cc(C5CCCC5)[nH]n4)n2)C3)C1 [Compound 70]  Dmax at 1 µM                 < 20%
3  c1cc(Nc2cc(C3CC3)[nH]n2)nc(N2CCC3(CCNC3)C2)n1 (stereo not shown) [Compound 42]  Dmax at 1 µM             50 to 79%

Continue with the molecule presented below.
Lab note: CN(C)[C@H]1CCN(c2nccc(Nc3cc(C4CC4)[nH]n3)n2)C1 [Compound 9] gave Dmax at 1 µM of 20 to 49%

Values compiled from patent US20250170130A1.
